Target: human TLR7 (Homo sapiens, UniProt Q9NYK1)
Construct: host or cells: HEK-Blue TLR7 cells (engineered human embryonic kidney cells)
Sequence (Q9NYK1 27-1049): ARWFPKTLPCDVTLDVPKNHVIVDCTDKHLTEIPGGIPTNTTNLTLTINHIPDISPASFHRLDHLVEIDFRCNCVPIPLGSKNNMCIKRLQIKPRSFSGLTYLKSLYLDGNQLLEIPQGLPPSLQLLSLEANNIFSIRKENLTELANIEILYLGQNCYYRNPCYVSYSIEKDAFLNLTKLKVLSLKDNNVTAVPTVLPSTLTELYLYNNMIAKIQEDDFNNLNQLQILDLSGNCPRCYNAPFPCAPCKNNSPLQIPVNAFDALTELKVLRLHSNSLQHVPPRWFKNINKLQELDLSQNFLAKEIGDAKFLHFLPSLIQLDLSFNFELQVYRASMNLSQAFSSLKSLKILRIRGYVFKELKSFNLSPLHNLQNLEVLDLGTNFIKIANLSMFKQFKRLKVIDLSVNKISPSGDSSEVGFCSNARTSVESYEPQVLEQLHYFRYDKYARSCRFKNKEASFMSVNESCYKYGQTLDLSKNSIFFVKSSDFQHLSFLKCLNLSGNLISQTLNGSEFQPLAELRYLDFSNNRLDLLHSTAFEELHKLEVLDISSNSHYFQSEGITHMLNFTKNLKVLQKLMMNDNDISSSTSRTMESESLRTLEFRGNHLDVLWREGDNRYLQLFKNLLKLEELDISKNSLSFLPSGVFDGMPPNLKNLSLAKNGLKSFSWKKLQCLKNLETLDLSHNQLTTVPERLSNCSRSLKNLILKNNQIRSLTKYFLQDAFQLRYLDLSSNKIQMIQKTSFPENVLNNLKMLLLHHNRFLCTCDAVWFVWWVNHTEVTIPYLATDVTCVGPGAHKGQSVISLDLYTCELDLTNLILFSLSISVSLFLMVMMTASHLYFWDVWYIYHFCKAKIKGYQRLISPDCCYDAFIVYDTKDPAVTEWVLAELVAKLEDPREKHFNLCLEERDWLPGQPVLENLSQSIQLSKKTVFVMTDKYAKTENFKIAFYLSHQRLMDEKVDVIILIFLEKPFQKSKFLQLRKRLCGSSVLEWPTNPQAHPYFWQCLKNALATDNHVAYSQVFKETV
Assay: Human TLR7 agonist activity reporter assay (HEK-Blue TLR7 cells, SEAP reporter)
Type: cell-based
Settings: 18 h treatment, average where assay repeated, Table A1, read-out: hTLR7 Agonism EC50
Experimental: This procedure describes a method for assaying human TLR7 (hTLR7) agonist activity of the compounds disclosed in this specification. HEK-Blue™ TLR7 cells were added to each well of a 384-well tissue-culture plate (15,000 cells per well) and incubated 16-18 h at 37° C., 5% CO2. […] After 18 h treatment ten microliters of freshly-prepared Quanti-Blue™ reagent (Invivogen) was added to each well, incubated for 30 min (37° C., 5% CO2) and SEAP levels measured using an Envision plate reader (OD=620 nm). […]
pEC50: −log10 of the molar value.
Here the recorded pEC50 is given for each entry.
quantity: pEC50

{"columns": ["compound", "dataValue"],
 "data": [
  ["CCC[C@@H](CCO)Nc1nc(N)nc2cnn(Cc3cc(C(=O)N[C@@H]4CCN(C)C4)ccc3OC)c12", 6.55],
  ["CCCCNc1nc(N)nc2cnn(Cc3cc(CN4CC(N(C)C)C4)ccc3OC)c12", 6.94],
  ["CCCCNc1nc(N)nc2cnn(Cc3cc(COCCCO)ccc3OC)c12", 6.37],
  ["COc1ccc(C(=O)NC2CCN(C)CC2)cc1Cn1ncc2nc(N)nc(NCC3CC4(CC4)C3)c21", 6.33],
  ["CCCCNc1nc(N)nc2cnn(Cc3cc(CN)ccc3OC)c12", 6.63],
  ["CCC[C@@H](CCO)Nc1nc(N)nc2c(C)nn(Cc3cc(CNC4CCOCC4)ccc3OC)c12", 6.53],
  ["CCCCNc1nc(N)nc2cnn(Cc3cc(COCCC(C)(C)O)ccc3OC)c12", 6.25],
  ["CCCCNc1nc(N)nc2cnn(Cc3cc(CNC45CC(C4)C5)ccc3OC)c12", 6.35],
  ["CCC[C@@H](CCO)Nc1nc(N)nc2c(C)nn(Cc3cc(CN4CCN(C)CC4)ccc3OC)c12", 7.31],
  ["CCC[C@@H](CCO)Nc1nc(N)nc2cnn(Cc3cc(CN[C@H]4CCOC[C@H]4O)ccc3OC)c12", 6.39],
  ["CCCCNc1nc(N)nc2cnn(Cc3cc(CN4CC5CCCCCC54)ccc3OC)c12 (centres unmarked)", 6.30],
  ["CCCCNc1nc(N)nc2cnn(Cc3cc(CN4CC5COCC5C4)ccc3OC)c12 (centres unmarked)", 6.80],
  ["CCCCNc1nc(N)nc2cnn(Cc3cc(CNC)ccc3OC)c12", 6.73],
  ["CCCCNc1nc(N)nc2cnn(Cc3cc(CN(C)C(=O)CCO)ccc3OC)c12", 6.77],
  ["CCC[C@@H](CCO)Nc1nc(N)nc2cnn(Cc3cc(CN4CCN(C)CC4)ccc3OC)c12", 7.65],
  ["CCCCNc1nc(N)nc2cnn(Cc3cc(C#N)ccc3OC)c12", 6.40],
  ["CCCCNc1nc(N)nc2cnn(Cc3cc(CN4CCC4)ccc3OC)c12", 6.77]
]}

----------
Molecular target: human TLR7 (Homo sapiens, UniProt Q9NYK1)
Construct: host or cells: HEK-Blue TLR7 cells (engineered human embryonic kidney cells)
Test: Human TLR7 agonist activity reporter assay (HEK-Blue TLR7 cells, SEAP reporter)
Type: cell-based
Settings: 18 h treatment, average where assay repeated, Table A1, read-out: hTLR7 Agonism EC50
Description: This procedure describes a method for assaying human TLR7 (hTLR7) agonist activity of the compounds disclosed in this specification. HEK-Blue™ TLR7 cells were added to each well of a 384-well tissue-culture plate (15,000 cells per well) and incubated 16-18 h at 37° C., 5% CO2. […] After 18 h treatment ten microliters of freshly-prepared Quanti-Blue™ reagent (Invivogen) was added to each well, incubated for 30 min (37° C., 5% CO2) and SEAP levels measured using an Envision plate reader (OD=620 nm). […]
quantity: EC50 (nM)

{"columns": ["molecule", "dataValue"],
 "data": [
  ["CCC[C@@H](CCO)Nc1nc(N)nc2cnn(Cc3cc(CN4CCN(CCO)CC4)ccc3OC)c12", 56.9],
  ["CCCCNc1nc(N)nc2cnn(Cc3cc(CN4CC5CCCC(C4)C5O)ccc3OC)c12 (centres unmarked)", 750],
  ["CCCCNc1nc(N)nc2cnn(Cc3cc(CNC4CCOCC4)ccc3OC)c12", 352],
  ["CCCCNc1nc(N)nc2cnn(Cc3cc(CNC4(C)CCOCC4)ccc3OC)c12", 529],
  ["CCCCNc1nc(N)nc2cnn(Cc3cc(CN4CC5(COC5)C4)ccc3OC)c12", 190]
]}

----------
Here the recorded pEC50 is given for each entry.
Tested on: CD69
Assay: Induction of CD69 in human whole blood
Assay type: cell-based
Conditions: 17 h, CD69 surface staining, 100% set to 1 uM resiquimod, Table A2, read-out: hWB CD69 EC50
pEC50: −log10 of the molar value.
quantity: pEC50

{"columns": ["smilesInput", "dataValue"],
 "data": [
  ["CCC[C@@H](CCO)Nc1nc(N)nc2cnn(Cc3cc(CN(C)CCN(C)C)cnc3OC)c12", 6.77],
  ["CCC[C@@H](CCO)Nc1nc(N)nc2cnn(Cc3cc(CNC4CCOCC4)c(F)cc3OC)c12", 7.56],
  ["CCC[C@@H](CCO)Nc1nc(N)nc2cnn(Cc3nc(CO)ccc3OC)c12", 7.38],
  ["CCC[C@@H](CCO)Nc1nc(N)nc2cnn(Cc3cc(CN4CCN(C)CC4)ncc3OC)c12", 7.46],
  ["CCC[C@@H](CCO)Nc1nc(N)nc2cnn(Cc3cc(CN4C[C@H]5C[C@@H]4CN5C)c(F)cc3OC)c12", 6.85],
  ["CCC[C@@H](CCO)Nc1nc(N)nc2cnn(Cc3cc(CN4CC[C@H](O)C4)c(F)cc3OC)c12", 8.24],
  ["CCC[C@@H](CCO)Nc1nc(N)nc2cnn(Cc3cc(CN4C[C@H]5C[C@@H]4CN5CCO)c(F)cc3OC)c12", 7.11],
  ["CCC[C@@H](CCO)Nc1nc(N)nc2cnn(Cc3cc(CNCCS(C)(=O)=O)c(F)cc3OC)c12", 7.63],
  ["CCC[C@@H](CCO)Nc1nc(N)nc2cnn(Cc3cc(CNC)c(F)cc3OC)c12", 8.21],
  ["CCC[C@@H](CCO)Nc1nc(N)nc2cnn(Cc3cc(CN4CC(O)C4)c(F)cc3OC)c12", 7.47],
  ["CCC[C@@H](CCO)Nc1nc(N)nc2cnn(Cc3cc(CNCCO)c(F)cc3OC)c12", 7.53],
  ["CCC[C@@H](CCO)Nc1nc(N)nc2cnn(Cc3cc(CN4CCNCC4)c(F)cc3OC)c12", 6.84],
  ["CCC[C@@H](CCO)Nc1nc(N)nc2cnn(Cc3cc(CN4CCN(CCO)CC4)c(F)cc3OC)c12", 7.41],
  ["CCC[C@@H](CCO)Nc1nc(N)nc2cnn(Cc3cc(CNC)ncc3OC)c12", 7.47]
]}

----------
Target: human TLR7 (Homo sapiens, UniProt Q9NYK1)
Construct: host or cells: HEK-Blue TLR7 cells (engineered human embryonic kidney cells)
Assay: Human TLR7 agonist activity reporter assay (HEK-Blue TLR7 cells, SEAP reporter)
Type: cell-based
Conditions: 18 h treatment, Table A2, read-out: hTLR7 Agonism EC50
Experimental: This procedure describes a method for assaying human TLR7 (hTLR7) agonist activity of the compounds disclosed in this specification. HEK-Blue™ TLR7 cells were added to each well of a 384-well tissue-culture plate (15,000 cells per well) and incubated 16-18 h at 37° C., 5% CO2. […] After 18 h treatment ten microliters of freshly-prepared Quanti-Blue™ reagent (Invivogen) was added to each well, incubated for 30 min (37° C., 5% CO2) and SEAP levels measured using an Envision plate reader (OD=620 nm). […]
Label rule met when EC50 is strictly below 200 nM; at or above that, label rule not met.

{"columns": ["compound", "cat"],
 "data": [
  ["CCC[C@@H](CCO)Nc1nc(N)nc2cnn(Cc3cc(CNCCS(C)(=O)=O)c(F)cc3OC)c12 [Compound 173]", "rule met"],
  ["CCC[C@@H](CCO)Nc1nc(N)nc2cnn(Cc3cc(CN4CC(O)C4)c(F)cc3OC)c12 [Compound 166]", "rule met"],
  ["CCC[C@@H](CCO)Nc1nc(N)nc2cnn(Cc3cc(CN4CCN(C)CC4)ncc3OC)c12 [Compound 177]", "rule not met"],
  ["CCC[C@@H](CCO)Nc1nc(N)nc2cnn(Cc3cc(CNC4CCOCC4)c(F)cc3OC)c12 [Compound 165]", "rule met"],
  ["CCC[C@@H](CCO)Nc1nc(N)nc2cnn(Cc3cc(CNC)c(F)cc3OC)c12 [Compound 169]", "rule met"],
  ["CCC[C@@H](CCO)Nc1nc(N)nc2cnn(Cc3cc(CN4CCNCC4)c(F)cc3OC)c12 [Compound 167]", "rule met"],
  ["CCC[C@@H](CCO)Nc1nc(N)nc2cnn(Cc3nc(CO)ccc3OC)c12 [Compound 174]", "rule met"],
  ["CCC[C@@H](CCO)Nc1nc(N)nc2cnn(Cc3cc(CN4C[C@H]5C[C@@H]4CN5C)c(F)cc3OC)c12 [Compound 171]", "rule not met"],
  ["CCC[C@@H](CCO)Nc1nc(N)nc2cnn(Cc3cc(CNCCO)c(F)cc3OC)c12 [Compound 172]", "rule met"],
  ["CCC[C@@H](CCO)Nc1nc(N)nc2cnn(Cc3cc(CN4CCN(CCO)CC4)c(F)cc3OC)c12 [Compound 168]", "rule met"],
  ["CCC[C@@H](CCO)Nc1nc(N)nc2cnn(Cc3cc(CN4CC[C@H](O)C4)c(F)cc3OC)c12 [Compound 176]", "rule met"],
  ["CCC[C@@H](CCO)Nc1nc(N)nc2cnn(Cc3cc(CN(C)CCN(C)C)cnc3OC)c12 [Compound 170]", "rule not met"],
  ["CCC[C@@H](CCO)Nc1nc(N)nc2cnn(Cc3cc(CNC)ncc3OC)c12 [Compound 178]", "rule not met"]
]}
